Test system: tamagayatsuri (small-flowered umbrellaplant, Cyperus difformis)
Assay: Experiment 4 flooded soil treatment: tamagayatsuri
Assay type: in vivo
Set-up: key: 5: completely killed; 4: seriously injured; 3: considerably injured; 2: somewhat injured; 1: slightly injured; 0: not injured (normally grown)
Conditions: 6.25 g/10a, 4 weeks after treatment
recorded_metric: Herbicidal Effect tamagayatsuri
Would you mind answering with just the numeric figure?

{"columns": ["compound", "Herbicidal Effect tamagayatsuri"],
 "data": [
  ["C#CC(C)Oc1cc(N(C(=O)C2=C(C(=O)OC3CCCC3)CCCC2)C(=O)c2cccnc2)c(F)cc1Cl (centres unmarked)", 5],
  ["C#CC(C)Oc1cc(N(C(=O)C2=C(C(=O)OCCOC)CCCC2)C(=O)c2ccc(Cl)nc2)c(F)cc1Cl (centres unmarked)", 5],
  ["C#CC(C)Oc1cc(N(C(=O)C2=C(C(=O)OC(C)C)CCCC2)C(=O)c2ccc(Cl)nc2)c(F)cc1Cl (centres unmarked)", 5]
]}

According to the records, this compound C#CC(C)Oc1cc(N(C(=O)C2=C(C(=O)OCCC)CCCC2)C(=O)c2cccnc2)c(F)cc1Cl (centres unmarked) displays Herbicidal Effect tamagayatsuri of 5

According to the records, this compound COC(=O)C1=C(C(=O)N(C(=O)c2cccnc2)c2cc(OC(C)C)c(Cl)cc2F)CCCC1 displays Herbicidal Effect tamagayatsuri of 5

According to the records, this compound C#CCOC(=O)C1=C(C(=O)N(C(=O)c2cccnc2)c2cc(OC(C)C#C)c(Cl)cc2F)CCCC1 (centres unmarked) displays Herbicidal Effect tamagayatsuri of 5

According to the records, this compound C#CC(C)Oc1cc(N(C(=O)C2=C(C(=O)OCCCC)CCCC2)C(=O)c2cccnc2)c(F)cc1Cl (centres unmarked) displays Herbicidal Effect tamagayatsuri of 5

According to the records, this compound COC(=O)CSc1cc(N(C(=O)C2=C(C(=O)OC)CCCC2)C(=O)c2cccnc2)c(F)cc1Cl displays Herbicidal Effect tamagayatsuri of 5

The reported measurements were obtained from patent US6337417B1.
